These entries and their values trace back to patent US20220177587A1.

target system: huCTLA4 (Homo sapiens, UniProt P16410)
Sequence (P16410 36-223): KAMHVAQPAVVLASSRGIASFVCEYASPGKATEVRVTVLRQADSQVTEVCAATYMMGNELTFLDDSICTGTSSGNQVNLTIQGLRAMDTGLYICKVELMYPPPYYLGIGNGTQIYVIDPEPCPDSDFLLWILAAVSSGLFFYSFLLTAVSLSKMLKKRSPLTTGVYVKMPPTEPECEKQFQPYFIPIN
assay text: Flow binding to CHO cells stably expressing CTLA4
Set-up: huCTLA4 and huPD-L1, full-length mammalian surface expression constructs were generated; expressed in transfected cells; host or cells: CHO cells, lentiviral transduction, sorted to >98% purity
conditions: Table E4; MFI ratio to WT CD80 ECD-Fc (R&D) at 33.3 nM
Quick list: CTLA4 Fold change to WT CD80 per entry.

{"molecule": "Q33L/E35D/M47I/N48D/A71G (protein, UniProt P33681 35-288, looked up, variant Q33L E35D M47I N48D A71G) T-lymphocyte activation …: VIHVTKEVKEVATLSCGHNVSVEELAQTRIYWLKDKKMVLTMMSGDIDIWPEYKNRTIFDITNNLSIVILGLRPSDEGTYECVVLKYEKDAFKREHLAEVTLSVKADFPTPSISDFEIPTSNIRRIICSTSGGFPEPHLSWLENGEELNAINTTVSQDPETELYAVSSKLDFNMTTNHSFMCLIKYGHLRVNQTFNWNTTKQEHFPDNLLPSWAITLISVNGIFVICCLTYCFAPRCRERRRNERLRRESVRPV", "CTLA4 Fold change to WT CD80": 0.74}
{"molecule": "E35D/M47V/N48KN68M/K89N (protein) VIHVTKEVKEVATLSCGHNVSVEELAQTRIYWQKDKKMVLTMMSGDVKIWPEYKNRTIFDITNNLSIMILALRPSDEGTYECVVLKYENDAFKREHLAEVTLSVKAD", "CTLA4 Fold change to WT CD80": 0.01}
{"molecule": "E35D/D46E/M47V/N63D/L85Q (protein, UniProt P33681 35-288, looked up, variant E35D D46E M47V N63D L85Q) T-lymphocyte activation …: VIHVTKEVKEVATLSCGHNVSVEELAQTRIYWQKDKKMVLTMMSGEVNIWPEYKNRTIFDITDNLSIVILALRPSDEGTYECVVQKYEKDAFKREHLAEVTLSVKADFPTPSISDFEIPTSNIRRIICSTSGGFPEPHLSWLENGEELNAINTTVSQDPETELYAVSSKLDFNMTTNHSFMCLIKYGHLRVNQTFNWNTTKQEHFPDNLLPSWAITLISVNGIFVICCLTYCFAPRCRERRRNERLRRESVRPV", "CTLA4 Fold change to WT CD80": 1.74}
{"molecule": "E35D/L85Q/K93I/E95V/L97Q (protein) VIHVTKEVKEVATLSCGHNVSVEELAQTRIYWQKDKKMVLTMMSGDMNIWPEYKNRTIFDITNNLSIVILALRPSDEGTYECVVQKYEKDAFTRVHQAEVTLSVKAD", "CTLA4 Fold change to WT CD80": 1.57}
{"molecule": "E35D/M47I/L85Q/D90G (protein, UniProt P33681 35-288, looked up, variant E35D M47I L85Q D90G) T-lymphocyte activation …: VIHVTKEVKEVATLSCGHNVSVEELAQTRIYWQKDKKMVLTMMSGDINIWPEYKNRTIFDITNNLSIVILALRPSDEGTYECVVQKYEKGAFKREHLAEVTLSVKADFPTPSISDFEIPTSNIRRIICSTSGGFPEPHLSWLENGEELNAINTTVSQDPETELYAVSSKLDFNMTTNHSFMCLIKYGHLRVNQTFNWNTTKQEHFPDNLLPSWAITLISVNGIFVICCLTYCFAPRCRERRRNERLRRESVRPV", "CTLA4 Fold change to WT CD80": 1.57}
{"molecule": "E35D/T41S/M43V/M47I/L70M/A71G (protein, UniProt P33681 35-288, looked up, variant E35D T41S M43V M47I L70M A71G, Fc fusion) T-lymphocyte activation …: VIHVTKEVKEVATLSCGHNVSVEELAQTRIYWQKDKKMVLSMVSGDINIWPEYKNRTIFDITNNLSIVIMGLRPSDEGTYECVVLKYEKDAFKREHLAEVTLSVKADFPTPSISDFEIPTSNIRRIICSTSGGFPEPHLSWLENGEELNAINTTVSQDPETELYAVSSKLDFNMTTNHSFMCLIKYGHLRVNQTFNWNTTKQEHFPDNLLPSWAITLISVNGIFVICCLTYCFAPRCRERRRNERLRRESVRPV", "CTLA4 Fold change to WT CD80": 1.59}
